- Subject Of Test: PKC isoform α (Homo sapiens, UniProt P17252)
- Test Protocol: Protein Kinase C histone-based assay, PKC alpha
- Type: biochemical
- Settings: histone III substrate, 30 μM ATP
Value Kind: IC50 (µM)

Some entries whose results are on file:
[[record]]
compound = "Cc1nnnn1CCCn1nc(C2=C(c3cn(C)c4ccc(Cl)cc34)C(=O)NC2=O)c2ccccc21 [Compound 10]"
subject_of_test = "PKC isoform α (Homo sapiens, UniProt P17252)"
value_kind = "IC50"
quantitative_result = 0.424

[[record]]
compound = "O=C1NC(=O)C(c2nn(CCCn3ncnn3)c3ccccc23)=C1c1cn(-c2cccnc2)c2ccccc12 [Compound 7]"
subject_of_test = "PKC isoform α (Homo sapiens, UniProt P17252)"
value_kind = "IC50"
quantitative_result = 0.451


I. O=C1NC(=O)C(c2nn(CCCn3cnnn3)c3ccccc23)=C1c1cn(-c2ccc3ccccc3c2)c2ccccc12 [Compound 6]
II. O=C1NC(=O)C(c2nn(CCCn3cnnn3)c3ccccc23)=C1c1cn(-c2cccnc2)c2ccccc12 [Compound 8]
Q: Looking at I and II , which one comes out lower in IC50 terms? When you have decided, please share the label of that item.
A: I
(I: 0.326 µM, II: 1.04 µM)

---

- Subject Of Test: PKC isoform α (Homo sapiens, UniProt P17252)
- Test Protocol: Protein Kinase C histone-based assay, PKC alpha
- Format: biochemical
- Settings: histone III substrate, 30 μM ATP
Value Kind: IC50 (µM)

Recorded IC50, per entry:
[[record]]
smiles_text = "O=C1NC(=O)C(c2nn(CCc3nnn[nH]3)c3ccccc23)=C1c1cn(-c2cccnc2)c2ccc(Cl)cc12"
subject_of_test = "PKC isoform α (Homo sapiens, UniProt P17252)"
value_kind = "IC50"
unit_abbreviation = "µM"
quantitative_result = 0.554

[[record]]
smiles_text = "Cn1cc(C2=C(c3nn(CCCn4ccnc4)c4ccccc34)C(=O)NC2=O)c2cc(Cl)ccc21"
subject_of_test = "PKC isoform α (Homo sapiens, UniProt P17252)"
value_kind = "IC50"
unit_abbreviation = "µM"
quantitative_result = 0.567

[[record]]
smiles_text = "Cn1cc(C2=C(c3nn(CCCn4ccnn4)c4ccccc34)C(=O)NC2=O)c2cc(Cl)ccc21"
subject_of_test = "PKC isoform α (Homo sapiens, UniProt P17252)"
value_kind = "IC50"
unit_abbreviation = "µM"
quantitative_result = 1.21

[[record]]
smiles_text = "O=C1NC(=O)C(c2nn(CCCn3ncnn3)c3ccccc23)=C1c1cn(-c2ccc3ccccc3c2)c2ccccc12"
subject_of_test = "PKC isoform α (Homo sapiens, UniProt P17252)"
value_kind = "IC50"
unit_abbreviation = "µM"
quantitative_result = 0.542


a. Cn1cc(C2=C(c3nn(CCc4nnn[nH]4)c4ccccc34)C(=O)NC2=O)c2cc(Cl)ccc21
b. Cn1cc(C2=C(c3nn(CCCn4cnnn4)c4ccccc34)C(=O)NC2=O)c2cc(Cl)ccc21
c. Cn1cc(C2=C(c3nn(CCCn4ncnn4)c4ccccc34)C(=O)NC2=O)c2cc(Cl)ccc21
Q: Write the entries in order, lowest recorded IC50 first. Record the ranking as a list of labels in the requested order.
A: b, a, c

---

- Subject Of Test: PKC isoform γ (Homo sapiens)
- Test Protocol: Protein Kinase C histone-based assay, PKC gamma
- Assay type: biochemical
- Settings: histone III substrate, 30 μM ATP
Value Kind: IC50 (µM)

Recorded results for 4 compounds are shown here.
[[record]]
smiles_text = "Cn1cc(C2=C(c3nn(CCCn4ncnn4)c4ccccc34)C(=O)NC2=O)c2cc(Cl)ccc21"
subject_of_test = "PKC isoform γ (Homo sapiens)"
quantitative_result = 1.01

[[record]]
smiles_text = "O=C1NC(=O)C(c2nn(CCCn3ncnn3)c3ccccc23)=C1c1cn(-c2ccc3ccccc3c2)c2ccccc12"
subject_of_test = "PKC isoform γ (Homo sapiens)"
quantitative_result = 1.7

[[record]]
smiles_text = "Cc1nnn(CCCn2nc(C3=C(c4cn(C)c5ccc(Cl)cc45)C(=O)NC3=O)c3ccccc32)n1"
subject_of_test = "PKC isoform γ (Homo sapiens)"
quantitative_result = 1.42

[[record]]
smiles_text = "O=C1NC(=O)C(c2nn(CCCn3cnnn3)c3ccccc23)=C1c1cn(-c2ccc3ccccc3c2)c2ccccc12"
subject_of_test = "PKC isoform γ (Homo sapiens)"
quantitative_result = 1.11


P. Cn1cc(C2=C(c3nn(CCCn4ccnn4)c4ccccc34)C(=O)NC2=O)c2cc(Cl)ccc21
Q. O=C1NC(=O)C(c2nn(CCCn3ncnn3)c3ccccc23)=C1c1cn(-c2cccnc2)c2ccccc12
Q: Hi, I'm comparing two records. Which one has the lower IC50, P or Q ? // return label of chosen record
A: P

A. Cn1cc(C2=C(c3nn(CCCn4ccnc4)c4ccccc34)C(=O)NC2=O)c2cc(Cl)ccc21
B. Cn1cc(C2=C(c3nn(CCc4nnn[nH]4)c4ccccc34)C(=O)NC2=O)c2cc(Cl)ccc21
Q: Could you check which of A and B has a smaller value for IC50? Identify your pick by its label.
A: A
(A: 0.476 µM, B: 1.93 µM)

---

- Subject Of Test: recombinant rabbit GSK-3β protein (Oryctolagus cuniculus)
- Construct: purchased New England Biolabs
- Sequence (G1T8E2 1-432): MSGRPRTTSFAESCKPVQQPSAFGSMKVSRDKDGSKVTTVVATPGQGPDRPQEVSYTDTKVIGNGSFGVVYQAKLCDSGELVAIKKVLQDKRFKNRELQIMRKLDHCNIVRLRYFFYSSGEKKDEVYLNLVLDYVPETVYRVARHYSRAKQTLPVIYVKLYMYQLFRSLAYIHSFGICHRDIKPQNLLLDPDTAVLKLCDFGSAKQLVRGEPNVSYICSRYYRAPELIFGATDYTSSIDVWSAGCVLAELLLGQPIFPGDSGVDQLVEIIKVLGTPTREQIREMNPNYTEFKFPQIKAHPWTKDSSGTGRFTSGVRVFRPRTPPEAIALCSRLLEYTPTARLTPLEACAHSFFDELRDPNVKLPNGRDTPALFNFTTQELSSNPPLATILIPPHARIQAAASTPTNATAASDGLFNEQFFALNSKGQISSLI
- Test Protocol: Glycogen Synthase Kinase-3 assay (PPI-2 phosphorylation)
- Format: biochemical
- Settings: PPI-2 substrate, 33P-ATP
- Protocol: Glycogen Synthase Kinase-3 Assay Compounds were tested for the ability to inhibit recombinant rabbit GSK-3β protein using the following protocol. […] Finally, the radioactivity was quantified using a TopCount Scintillation Counter (Packard). […]
Value Kind: IC50 (µM)

a. O=C1NC(=O)C(c2nn(CCCn3ncnn3)c3ccccc23)=C1c1cn(-c2cccnc2)c2ccccc12
b. O=C1NC(=O)C(c2nn(CCc3nnn[nH]3)c3ccccc23)=C1c1cn(-c2cccnc2)c2ccc(Cl)cc12
c. O=C1NC(=O)C(c2nn(CCCn3ncnn3)c3ccccc23)=C1c1cn(-c2ccc3ccccc3c2)c2ccccc12
d. Cc1nnnn1CCCn1nc(C2=C(c3cn(C)c4ccc(Cl)cc34)C(=O)NC2=O)c2ccccc21
Q: Number of compounds to sort: 4. Sort criterion: IC50, ascending. Dear reader, please state the labels in the requested order.
A: d, a, b, c
(d: 0.005 µM, a: 0.027 µM, b: 0.107 µM, c: 0.776 µM)

---

- Subject Of Test: PKC isoform γ (Homo sapiens)
- Test Protocol: Protein Kinase C histone-based assay, PKC gamma
- Assay type: biochemical
- Settings: histone III substrate, 30 μM ATP
Value Kind: IC50 (µM)

Some solved entries appear below for comparison.
[[record]]
compound = "Cc1nnnn1CCCn1nc(C2=C(c3cn(C)c4ccc(Cl)cc34)C(=O)NC2=O)c2ccccc21 [Compound 10]"
unit_abbreviation = "µM"
quantitative_result = 0.602

[[record]]
compound = "O=C1NC(=O)C(c2nn(CCCn3cnnn3)c3ccccc23)=C1c1cn(-c2cccnc2)c2ccccc12 [Compound 8]"
unit_abbreviation = "µM"
quantitative_result = 4.3


A. O=C1NC(=O)C(c2nn(CCc3nnn[nH]3)c3ccccc23)=C1c1cn(-c2cccnc2)c2ccc(Cl)cc12 [Compound 12]
B. Cn1cc(C2=C(c3nn(CCCn4cnnn4)c4ccccc34)C(=O)NC2=O)c2cc(Cl)ccc21 [Compound 4]
Q: Lowest IC50? choose A or B # respond with the chosen item's label
A: A
(A: 0.226 µM, B: 0.544 µM)

---

- Subject Of Test: PKC isoform β-II (Homo sapiens, UniProt P05771)
- Sequence (P05771 1-673 isoform P05771-2): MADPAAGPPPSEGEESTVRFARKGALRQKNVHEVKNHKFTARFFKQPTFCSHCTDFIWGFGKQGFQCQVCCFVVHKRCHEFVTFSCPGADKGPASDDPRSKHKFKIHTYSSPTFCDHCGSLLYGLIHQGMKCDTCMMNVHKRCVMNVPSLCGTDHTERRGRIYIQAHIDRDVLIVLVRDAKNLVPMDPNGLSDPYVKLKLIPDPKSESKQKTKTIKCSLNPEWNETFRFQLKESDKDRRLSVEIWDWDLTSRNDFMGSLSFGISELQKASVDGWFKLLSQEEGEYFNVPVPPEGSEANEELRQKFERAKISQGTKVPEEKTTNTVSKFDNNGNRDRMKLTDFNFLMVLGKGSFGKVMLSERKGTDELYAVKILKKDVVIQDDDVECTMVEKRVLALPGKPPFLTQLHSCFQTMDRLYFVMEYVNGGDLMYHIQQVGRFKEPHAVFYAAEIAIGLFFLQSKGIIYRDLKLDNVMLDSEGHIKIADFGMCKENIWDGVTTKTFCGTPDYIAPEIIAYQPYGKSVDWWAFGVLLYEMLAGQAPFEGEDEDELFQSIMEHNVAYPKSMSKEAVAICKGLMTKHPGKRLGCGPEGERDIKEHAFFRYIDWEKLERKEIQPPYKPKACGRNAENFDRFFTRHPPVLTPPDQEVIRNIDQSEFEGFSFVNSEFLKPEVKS
- Test Protocol: Protein Kinase C histone-based assay, PKC beta II
- Assay type: biochemical
- Settings: histone III substrate, 30 μM ATP
Value Kind: IC50 (µM)

[[record]]
smiles_text = "O=C1NC(=O)C(c2nn(CCCn3cnnn3)c3ccccc23)=C1c1cn(-c2cccnc2)c2ccccc12"
quantitative_result = 0.052

[[record]]
smiles_text = "Cn1cc(C2=C(c3nn(CCCn4ccnn4)c4ccccc34)C(=O)NC2=O)c2cc(Cl)ccc21"
quantitative_result = 0.046

[[record]]
smiles_text = "O=C1NC(=O)C(c2nn(CCCn3ncnn3)c3ccccc23)=C1c1cn(-c2ccc3ccccc3c2)c2ccccc12"
quantitative_result = 0.025

[[record]]
smiles_text = "Cn1cc(C2=C(c3nn(CCc4nnn[nH]4)c4ccccc34)C(=O)NC2=O)c2cc(Cl)ccc21"
quantitative_result = 0.123

[[record]]
smiles_text = "Cn1cc(C2=C(c3nn(CCCn4cnnn4)c4ccccc34)C(=O)NC2=O)c2cc(Cl)ccc21"
quantitative_result = 0.035

[[record]]
smiles_text = "Cc1nnn(CCCn2nc(C3=C(c4cn(C)c5ccc(Cl)cc45)C(=O)NC3=O)c3ccccc32)n1"
quantitative_result = 0.041

[[record]]
smiles_text = "Cn1cc(C2=C(c3nn(CCCn4ncnn4)c4ccccc34)C(=O)NC2=O)c2cc(Cl)ccc21"
quantitative_result = 0.045


a. O=C1NC(=O)C(c2nn(CCCn3ncnn3)c3ccccc23)=C1c1cn(-c2cccnc2)c2ccccc12
b. O=C1NC(=O)C(c2nn(CCc3nnn[nH]3)c3ccccc23)=C1c1cn(-c2cccnc2)c2ccc(Cl)cc12
c. O=C1NC(=O)C(c2nn(CCCn3cnnn3)c3ccccc23)=C1c1cn(-c2ccc3ccccc3c2)c2ccccc12
d. Cc1nnnn1CCCn1nc(C2=C(c3cn(C)c4ccc(Cl)cc34)C(=O)NC2=O)c2ccccc21
e. Cn1cc(C2=C(c3nn(CCCn4ccnc4)c4ccccc34)C(=O)NC2=O)c2cc(Cl)ccc21
Q: Could you please sort these 5 entries by IC50 from high to low? Sort and list the labels as requested.
A: b, a, c, e, d
